target: Epac1 (Homo sapiens, UniProt O95398); construct: made in house; test: Epac activation assay, Epac1; assay type: biochemical; settings: Epac1
Sequence (O95398 192-923): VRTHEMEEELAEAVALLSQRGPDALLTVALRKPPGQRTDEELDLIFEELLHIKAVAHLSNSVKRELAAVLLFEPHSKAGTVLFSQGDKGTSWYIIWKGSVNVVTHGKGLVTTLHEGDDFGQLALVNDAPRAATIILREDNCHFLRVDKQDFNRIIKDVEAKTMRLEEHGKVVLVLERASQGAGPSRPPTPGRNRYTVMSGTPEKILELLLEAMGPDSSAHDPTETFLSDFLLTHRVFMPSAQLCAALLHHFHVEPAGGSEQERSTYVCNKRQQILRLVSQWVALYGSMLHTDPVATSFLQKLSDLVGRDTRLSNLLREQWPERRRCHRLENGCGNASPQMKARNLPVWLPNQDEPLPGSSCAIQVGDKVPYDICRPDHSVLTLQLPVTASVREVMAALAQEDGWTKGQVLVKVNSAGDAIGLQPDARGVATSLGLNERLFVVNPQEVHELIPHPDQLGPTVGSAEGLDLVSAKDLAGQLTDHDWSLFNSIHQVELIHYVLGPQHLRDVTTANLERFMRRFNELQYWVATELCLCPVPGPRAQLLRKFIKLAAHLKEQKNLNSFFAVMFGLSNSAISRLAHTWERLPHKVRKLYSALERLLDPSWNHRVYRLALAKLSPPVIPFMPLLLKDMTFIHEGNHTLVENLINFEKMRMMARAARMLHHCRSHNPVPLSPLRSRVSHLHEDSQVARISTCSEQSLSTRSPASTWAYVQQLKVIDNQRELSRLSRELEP
AC50 listing for selected compounds.
Note: unit µM is implicit; provide only the numeric part.

Some entries whose results are on file:
compound=Nc1ncnc2c1nc(NCc1ccccc1)n2[C@@H]1O[C@@H]2COP(=O)(O)O[C@H]2[C@H]1O unit_symbol=µM test_value=30
compound=Nc1ncnc2c1nc(SCc1ccccc1)n2[C@H]1C[C@@H]2O[P@@](O)(=S)OC[C@H]2O1 unit_symbol=µM test_value=280
compound=CO[C@@H]1[C@@H]2OP(=O)(O)OC[C@H]2O[C@H]1n1c(Sc2ccc(O)cc2)nc2c(N)ncnc21 unit_symbol=µM test_value=1
compound="CO[C@H]1C2OP(O)(=S)OC[C@H]2O[C@H]1n1c(Sc2ccc(Cl)cc2)nc2c(N)ncnc21 (stereo partly shown)" unit_symbol=µM test_value=7.3

Suppose we examine the compound Nc1ncnc2c1nc(Br)n2[C@@H]1O[C@@H]2COP(O)(=S)O[C@@H]2C1O (stereo partly shown) ; what AC50 value has been reported?
16

Tell me the measured AC50 of `Nc1ncnc2c1nc(SCCc1ccccc1)n2[C@@H]1O[C@@H]2CO[P@](O)(=S)O[C@H]2[C@H]1O` , please.
6

// query AC50 value for entry `Nc1ncnc2c1ncn2[C@@H]1O[C@@H]2COP(=O)(O)O[C@H]2[C@H]1F`
1500

###

molecular target: PKA-IIα (Homo sapiens); construct: made in house; experiment: PKA activity assay, PKA-IIα; format: biochemical; conditions: PKAIIα; concentration 1 μM
Sequence (P13861 whole entry): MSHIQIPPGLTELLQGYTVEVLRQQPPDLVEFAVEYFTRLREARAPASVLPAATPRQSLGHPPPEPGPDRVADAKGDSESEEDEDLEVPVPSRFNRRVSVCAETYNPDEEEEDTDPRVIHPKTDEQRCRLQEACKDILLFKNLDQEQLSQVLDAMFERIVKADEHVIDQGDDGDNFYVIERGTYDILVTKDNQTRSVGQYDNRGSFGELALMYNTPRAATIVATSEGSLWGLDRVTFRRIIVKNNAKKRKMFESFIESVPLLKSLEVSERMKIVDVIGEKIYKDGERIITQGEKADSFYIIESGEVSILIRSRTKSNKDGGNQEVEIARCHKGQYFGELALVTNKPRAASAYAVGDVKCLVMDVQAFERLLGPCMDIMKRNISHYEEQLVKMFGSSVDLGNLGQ
Listed below: A (PKA activity) values for each entry.
Express it in U/mg; write the number only.

Example compounds with recorded A (PKA activity):
compound="COC1C2OP(=O)(O)OCC2OC1n1c(Sc2ccc(Cl)cc2)nc2c(N)ncnc21 [D-007, 8-pCPT-2′-O-Me-cAMP, reference compound]" unit_symbol=U/mg test_value=7.998
compound="Nc1ncnc2c1nc(SCc1ccccc1)n2[C@@H]1O[C@@H]2CO[P@](O)(=S)O[C@H]2[C@H]1O [S-220, Sp-8-BnT-cAMPS]" unit_symbol=U/mg test_value=1.74E+01
compound="Nc1ncnc2c1ncn2[C@@H]1O[C@@H]2COP(=O)(O)O[C@H]2[C@H]1O [cAMP, reference compound]" unit_symbol=U/mg test_value=2.29E+01

Would you kindly look at the next entry?
What value of A (PKA activity) on PKA-IIα (Homo sapiens) does Cc1ccc(CSc2nc3c(N)ncnc3n2[C@@H]2O[C@@H]3CO[P@](O)(=S)O[C@H]3[C@H]2O)cc1 [S-230, Sp-8-pMeBnT-cAMPS] have?
8.2345

###

Molecular target: Epac2^fl (Mus musculus, UniProt Q9EQZ6)
Sequence (Q9EQZ6 1-993 isoform Q9EQZ6-3): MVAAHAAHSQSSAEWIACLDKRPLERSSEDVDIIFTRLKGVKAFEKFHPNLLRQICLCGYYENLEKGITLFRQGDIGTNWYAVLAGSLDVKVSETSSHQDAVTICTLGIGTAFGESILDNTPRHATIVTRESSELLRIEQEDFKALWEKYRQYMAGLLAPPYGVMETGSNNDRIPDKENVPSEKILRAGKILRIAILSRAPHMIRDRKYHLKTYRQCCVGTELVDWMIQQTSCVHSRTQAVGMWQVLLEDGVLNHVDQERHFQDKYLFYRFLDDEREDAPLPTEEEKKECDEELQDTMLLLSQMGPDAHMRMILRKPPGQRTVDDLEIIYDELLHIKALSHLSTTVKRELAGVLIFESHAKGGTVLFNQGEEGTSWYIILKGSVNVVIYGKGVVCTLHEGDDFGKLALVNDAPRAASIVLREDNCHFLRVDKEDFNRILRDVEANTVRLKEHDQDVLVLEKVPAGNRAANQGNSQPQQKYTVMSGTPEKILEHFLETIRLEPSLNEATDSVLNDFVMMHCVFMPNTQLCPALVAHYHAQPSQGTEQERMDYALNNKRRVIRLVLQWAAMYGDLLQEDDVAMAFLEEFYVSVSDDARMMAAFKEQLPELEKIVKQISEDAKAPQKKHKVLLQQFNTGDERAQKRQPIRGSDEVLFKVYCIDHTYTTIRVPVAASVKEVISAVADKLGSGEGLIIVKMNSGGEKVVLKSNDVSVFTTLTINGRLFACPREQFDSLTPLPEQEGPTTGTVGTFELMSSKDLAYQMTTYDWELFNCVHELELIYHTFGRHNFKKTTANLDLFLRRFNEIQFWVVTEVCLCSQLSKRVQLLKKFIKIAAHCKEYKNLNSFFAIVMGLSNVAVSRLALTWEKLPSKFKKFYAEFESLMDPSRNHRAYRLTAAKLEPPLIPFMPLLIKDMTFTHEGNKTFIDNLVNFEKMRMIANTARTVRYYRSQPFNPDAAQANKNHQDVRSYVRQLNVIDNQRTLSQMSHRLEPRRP
Test: Epac activation assay, full length Epac2
Format: biochemical
Design: made in house
Conditions: 5 μM compound
Protocol: Murine Epac2 was used as all previous structural studies were performed with it. The activity of Epac was determined by a fluorescence assay. […] The fluorescence intensity of Rap1B•mGDP is approximately twice that of free mGDP, and thus, nucleotide exchange can be observed as a decay in fluorescence upon the addition of excess unlabeled GDP.
kobs by entry:
Return type: number; implicit unit s⁻¹.

molecule="COC1C2OP(=O)(O)OCC2OC1n1c(Sc2ccc(Cl)cc2)nc2c(N)ncnc21 [D-007, 8-pCPT-2′-O-Me-cAMP, reference compound]" test_value=2.86e-05
molecule="Nc1ncnc2c1nc(SCc1ccccc1)n2[C@@H]1O[C@@H]2CO[P@](O)(=S)O[C@H]2[C@H]1O [S-220, Sp-8-BnT-cAMPS]" test_value=0.0011
molecule="Cc1ccc(CSc2nc3c(N)ncnc3n2[C@@H]2O[C@@H]3CO[P@](O)(=S)O[C@H]3[C@H]2O)cc1 [S-230, Sp-8-pMeBnT-cAMPS]" test_value=0.000145

Shifting focus to the molecule that follows.
Request - read-out kobs | tested on Epac2^fl (Mus musculus, UniProt Q9EQZ6) | molecule Nc1ncnc2c1ncn2[C@@H]1O[C@@H]2COP(=O)(O)O[C@H]2[C@H]1O [cAMP, reference compound]
5.23e-05

###

Property: kobs; scope: individual compounds
target: Epac1 (Homo sapiens, UniProt O95398); construct: made in house; experiment: Epac activation assay, Epac1; format: biochemical; details: 6 μM compound
The reply should contain only the number, in s⁻¹.

Sample answers from the record:
compound="COC1C2OP(=O)(O)OCC2OC1n1c(Sc2ccc(Cl)cc2)nc2c(N)ncnc21 [D-007, 8-pCPT-2′-O-Me-cAMP, reference compound]" test_system="Epac1 (Homo sapiens, UniProt O95398)" readout_name=kobs test_value=0.00312
compound=Nc1ncnc2c1nc(SCc1ccccc1)n2[C@@H]1O[C@@H]2CO[P@](O)(=S)O[C@H]2[C@H]1O test_system="Epac1 (Homo sapiens, UniProt O95398)" readout_name=kobs test_value=0.000128
compound=Cc1ccc(CSc2nc3c(N)ncnc3n2[C@@H]2O[C@@H]3CO[P@](O)(=S)O[C@H]3[C@H]2O)cc1 test_system="Epac1 (Homo sapiens, UniProt O95398)" readout_name=kobs test_value=3.8e-05

Next compound, kobs to be filled in.
Endpoint output: kobs of Nc1ncnc2c1ncn2[C@@H]1O[C@@H]2COP(=O)(O)O[C@H]2[C@H]1O [cAMP, reference compound] . Value?
0.000161

###

Here, each record is paired with measured Rel. kmax data.
target: Epac2^Δ280 (Mus musculus, UniProt Q9EQZ6); construct: made in house; test: Epac activation assay (Rap1B•mGDP fluorescence nucleotide exchange), Epac2^Δ280; assay type: biochemical; settings: Epac2^Δ280; maximal activity relative to cAMP
Sequence (Q9EQZ6 299-1011, stated change not applied): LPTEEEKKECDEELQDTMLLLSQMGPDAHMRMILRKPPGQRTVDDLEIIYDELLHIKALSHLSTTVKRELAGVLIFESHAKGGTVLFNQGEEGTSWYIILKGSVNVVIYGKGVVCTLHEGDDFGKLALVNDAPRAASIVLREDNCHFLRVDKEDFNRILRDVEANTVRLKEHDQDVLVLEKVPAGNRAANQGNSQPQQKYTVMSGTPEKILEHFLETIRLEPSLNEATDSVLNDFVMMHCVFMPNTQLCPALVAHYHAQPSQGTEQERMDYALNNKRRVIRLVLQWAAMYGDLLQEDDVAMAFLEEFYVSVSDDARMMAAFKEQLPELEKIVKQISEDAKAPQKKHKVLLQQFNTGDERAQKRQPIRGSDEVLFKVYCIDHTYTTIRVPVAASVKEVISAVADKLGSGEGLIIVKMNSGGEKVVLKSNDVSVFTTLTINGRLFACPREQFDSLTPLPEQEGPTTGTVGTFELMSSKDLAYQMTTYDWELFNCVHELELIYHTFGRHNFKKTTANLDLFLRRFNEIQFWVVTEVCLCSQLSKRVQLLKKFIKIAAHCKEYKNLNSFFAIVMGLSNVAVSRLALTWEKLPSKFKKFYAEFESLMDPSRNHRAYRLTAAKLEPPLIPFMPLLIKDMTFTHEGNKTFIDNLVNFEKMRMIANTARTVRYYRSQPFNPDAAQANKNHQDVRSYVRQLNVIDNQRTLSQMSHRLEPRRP
# print the numeric value only

molecule="Nc1ncnc2c1nc(N)n2[C@@H]1O[C@@H]2COP(=O)(O)O[C@H]2[C@H]1O [L-003, 8-NH2-cAMP]" readout_name="Rel. kmax" test_value=0.7

// moving on: another record for Rel. kmax
Rel. kmax for Nc1ncnc2c1nc(SCc1ccccc1)n2[C@H]1C[C@@H]2O[P@@](O)(=S)OC[C@H]2O1 [S-221, Sp-8-BnT-2′-dcAMPS] ?
1.5

###

target: Epac2^Δ280 (Mus musculus); construct: made in house; assay: Epac activation assay (Rap1B•mGDP fluorescence nucleotide exchange), Epac2^Δ280; type: biochemical; settings: Epac2^Δ280
// returns F unless AC50 is strictly below 4 µM, in which case T

Use the examples below as a reference point.
compound=CO[C@@H]1[C@@H]2OP(=O)(O)OC[C@H]2O[C@H]1n1c(Sc2ccc(O)cc2)nc2c(N)ncnc21 class_assignment=T
compound=Nc1ncnc2c1nc(SCc1ccccc1)n2[C@@H]1O[C@@H]2COP(=O)(O)O[C@H]2[C@H]1F class_assignment=T
compound=Nc1ncnc2c1nc(Sc1ccc(O)cc1)n2[C@@H]1O[C@@H]2CO[P@](O)(=S)O[C@H]2[C@H]1F class_assignment=T
compound=CO[C@@H]1[C@@H]2O[P@@](O)(=S)OC[C@H]2O[C@H]1n1c(SC)nc2c(N)ncnc21 class_assignment=T
compound=CO[C@@H]1[C@@H]2OP(=O)(O)OC[C@H]2O[C@H]1n1c([Se]Cc2ccccc2)nc2c(N)ncnc21 class_assignment=T
compound=Nc1ncnc2c1nc(Sc1ccc(O)cc1)n2[C@@H]1O[C@@H]2CO[P@](O)(=S)O[C@H]2[C@H]1O class_assignment=T
compound=C=CCNc1nc2c(N)ncnc2n1[C@@H]1O[C@@H]2COP(=O)(O)O[C@H]2[C@H]1O class_assignment=T
compound=Nc1ncnc2c1nc(N1CCCCC1)n2[C@@H]1O[C@@H]2COP(=O)(O)O[C@H]2[C@H]1O class_assignment=F

API: query returns whether the compound falls strictly under 4 µM in AC50. Query: `Nc1ncnc2c1nc(Cl)n2[C@@H]1O[C@@H]2COP(=O)(O)O[C@H]2[C@H]1O`
T

Criterion: AC50 strictly below 4 µM. Is it met by `CC(C)(C)c1ccc(CSc2nc3c(N)ncnc3n2[C@@H]2O[C@@H]3CO[P@](O)(=S)O[C@H]3[C@H]2O)cc1` ?
T

Report whether reported AC50 is lower than 4 µM (strictly) for `Nc1ncnc2c1nc(Sc1ccc(Cl)cc1)n2[C@@H]1O[C@@H]2COP(=O)(O)O[C@H]2[C@H]1O`
T

Here's an entry: `Nc1ncnc2c1nc(N)n2[C@@H]1O[C@@H]2COP(=O)(O)O[C@H]2[C@H]1O` . Is its AC50 below 4 µM?
T

Lab note: confirm whether the reported AC50 for this compound is below 4 µM, equality not counting. compound: `CCN(CC)c1nc2c(N)ncnc2n1[C@@H]1O[C@@H]2CO[P@](O)(=S)O[C@H]2[C@H]1O`
F

###

molecular target: PKA-Iα (Homo sapiens); construct: made in house; test: PKA activity assay (coupled spectrophotometric, Kemptide), PKA-Iα; format: biochemical; conditions: PKAIα; concentration 1 μM
Sequence (P10644 whole entry): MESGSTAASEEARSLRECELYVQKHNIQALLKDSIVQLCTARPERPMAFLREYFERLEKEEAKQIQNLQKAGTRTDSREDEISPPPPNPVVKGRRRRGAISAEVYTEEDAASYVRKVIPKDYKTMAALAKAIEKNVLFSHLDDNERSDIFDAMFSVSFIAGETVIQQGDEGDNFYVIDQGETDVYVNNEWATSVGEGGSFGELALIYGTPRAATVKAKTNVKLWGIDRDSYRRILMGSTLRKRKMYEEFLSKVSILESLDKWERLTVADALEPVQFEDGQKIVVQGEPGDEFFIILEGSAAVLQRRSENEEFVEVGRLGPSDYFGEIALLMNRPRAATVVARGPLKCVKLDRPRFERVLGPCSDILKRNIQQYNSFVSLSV
READOUT_NAME: A (PKA activity) (U/mg)
Write the answer as a number in U/mg, unit excluded.

Example entries begin here.
compound="COC1C2OP(=O)(O)OCC2OC1n1c(Sc2ccc(Cl)cc2)nc2c(N)ncnc21 [D-007, 8-pCPT-2′-O-Me-cAMP, reference compound]" test_value=3.924
compound=Nc1ncnc2c1nc(SCc1ccccc1)n2[C@@H]1O[C@@H]2CO[P@](O)(=S)O[C@H]2[C@H]1O test_value=1.97E+01
compound=Cc1ccc(CSc2nc3c(N)ncnc3n2[C@@H]2O[C@@H]3CO[P@](O)(=S)O[C@H]3[C@H]2O)cc1 test_value=2.9904

Look up A (PKA activity) for this compound: Nc1ncnc2c1ncn2[C@@H]1O[C@@H]2COP(=O)(O)O[C@H]2[C@H]1O [cAMP, reference compound]
2.37E+01

Each recorded value in this set is attributed to paper PMC4300089.
